The entries below are paired with their reported IC50.
- protocol_description: Inhibition of 5-alpha reductase in rat liver microsomes assessed as inhibition of DHT formation using testosterone as substrate incubated for 10 mins by NADPH assay
Give a bare numeral; the unit nM is implied.

Worked examples follow.
{"compound": "O=C(O)CCCc1cn(CCCCCN2CCN(c3ccccc3Cl)CC2)c2ccccc12", "IC50, nM": 612}
{"compound": "CC(C)(C)NC(=O)[C@H]1CC[C@H]2[C@@H]3CC[C@H]4NC(=O)C=C[C@]4(C)[C@H]3CC[C@]12C [FINASTERIDE]", "IC50, nM": 590}

Would you mind telling me what IC50 value was observed for COc1ccccc1N1CCN(CCCCn2cc(CCCC(=O)O)c3ccccc32)CC1 ? 568
